Target: human NaV 1.8 (Homo sapiens)
Sequence (Q9Y5Y9 whole entry, looked up): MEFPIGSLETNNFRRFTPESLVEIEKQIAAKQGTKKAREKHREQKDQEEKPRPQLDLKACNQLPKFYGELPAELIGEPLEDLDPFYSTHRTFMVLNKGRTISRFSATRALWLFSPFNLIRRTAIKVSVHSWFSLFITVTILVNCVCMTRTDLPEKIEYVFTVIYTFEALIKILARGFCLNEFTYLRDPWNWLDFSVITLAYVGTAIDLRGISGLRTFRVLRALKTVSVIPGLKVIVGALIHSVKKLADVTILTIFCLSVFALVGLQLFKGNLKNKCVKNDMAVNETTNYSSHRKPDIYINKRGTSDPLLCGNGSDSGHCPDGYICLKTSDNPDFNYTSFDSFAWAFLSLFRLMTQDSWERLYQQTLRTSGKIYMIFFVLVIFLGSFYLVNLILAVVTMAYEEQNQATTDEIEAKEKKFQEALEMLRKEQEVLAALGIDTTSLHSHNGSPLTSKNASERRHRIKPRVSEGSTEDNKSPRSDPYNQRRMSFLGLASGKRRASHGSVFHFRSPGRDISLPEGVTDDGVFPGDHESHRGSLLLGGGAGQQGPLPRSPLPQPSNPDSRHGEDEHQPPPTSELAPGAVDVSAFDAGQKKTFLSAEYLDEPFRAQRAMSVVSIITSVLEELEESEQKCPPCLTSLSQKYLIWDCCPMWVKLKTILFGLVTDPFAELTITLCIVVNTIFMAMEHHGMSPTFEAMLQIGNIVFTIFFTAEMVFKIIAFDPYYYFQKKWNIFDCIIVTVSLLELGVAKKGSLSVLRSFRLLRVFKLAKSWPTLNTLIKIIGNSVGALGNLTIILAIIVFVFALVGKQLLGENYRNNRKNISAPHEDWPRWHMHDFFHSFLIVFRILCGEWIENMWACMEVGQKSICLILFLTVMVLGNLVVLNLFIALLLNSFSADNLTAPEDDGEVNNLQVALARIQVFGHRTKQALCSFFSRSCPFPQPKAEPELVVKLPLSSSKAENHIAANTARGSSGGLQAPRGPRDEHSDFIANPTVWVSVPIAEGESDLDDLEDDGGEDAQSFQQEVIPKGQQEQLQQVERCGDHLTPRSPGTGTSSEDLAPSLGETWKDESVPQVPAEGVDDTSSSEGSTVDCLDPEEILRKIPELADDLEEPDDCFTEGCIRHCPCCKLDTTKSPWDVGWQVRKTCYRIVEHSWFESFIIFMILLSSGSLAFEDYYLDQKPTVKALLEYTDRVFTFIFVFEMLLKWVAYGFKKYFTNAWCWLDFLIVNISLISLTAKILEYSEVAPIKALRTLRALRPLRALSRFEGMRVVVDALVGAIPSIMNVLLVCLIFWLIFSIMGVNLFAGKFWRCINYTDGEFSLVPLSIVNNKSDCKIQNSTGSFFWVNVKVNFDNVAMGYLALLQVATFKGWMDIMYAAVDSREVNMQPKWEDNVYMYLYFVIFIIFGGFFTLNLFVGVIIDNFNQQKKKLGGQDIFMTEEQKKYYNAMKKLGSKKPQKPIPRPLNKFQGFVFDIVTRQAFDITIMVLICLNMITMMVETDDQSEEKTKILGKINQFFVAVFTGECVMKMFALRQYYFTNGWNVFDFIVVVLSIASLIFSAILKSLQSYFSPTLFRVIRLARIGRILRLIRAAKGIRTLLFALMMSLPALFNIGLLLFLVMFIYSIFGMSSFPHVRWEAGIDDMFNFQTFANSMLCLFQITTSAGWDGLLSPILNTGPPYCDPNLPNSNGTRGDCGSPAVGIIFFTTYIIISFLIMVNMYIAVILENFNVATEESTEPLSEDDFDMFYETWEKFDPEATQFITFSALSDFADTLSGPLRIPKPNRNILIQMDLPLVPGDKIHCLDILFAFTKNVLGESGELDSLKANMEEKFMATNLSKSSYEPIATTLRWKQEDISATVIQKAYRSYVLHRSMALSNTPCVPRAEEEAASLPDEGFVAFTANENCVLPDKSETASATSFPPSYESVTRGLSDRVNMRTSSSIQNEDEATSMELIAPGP
Experiment: E-VIPR assay for detecting and measuring NaV inhibition properties
Type: cell-based
Conditions: E-VIPR assay conducted in the presence of human serum; HEK cells expressing truncated human NaV 1.8; read-out: IC50
Description: Sodium ion channels are voltage-dependent proteins that can be activated by inducing membrane voltage changes by applying electric fields. The electrical stimulation instrument and methods of use, referred to as E-VIPR, are described in International Publication No. WO 2002/008748 A3 and C.-J. Huang et al. Characterization of voltage-gated sodium channel blockers by electrical stimulation and fluorescence detection of membrane potential, 24 Nature Biotech. […]
Can you tell me pIC50 for the items I'm about to list?
One number for each entry, as −log10 of the molar value.

Past entries and their recorded results:
{"structure": "COc1cc(F)ccc1Oc1ccc(C(F)(F)F)c(C)c1C(=O)Nc1ccc(C(N)=O)nc1", "readout": "pIC50", "result": 5.82}
{"structure": "COc1cc(OC(F)(F)F)ccc1Oc1ccc(C(F)(F)F)c(NCC(C)C)c1C(=O)Nc1ccnc(C(N)=O)c1", "readout": "pIC50", "result": 5.82}

// input: 4 compounds below; output: pIC50 for each
1. NC(=O)c1ccc(NC(=O)c2c(Oc3ccc(OC(F)(F)F)c(Cl)c3)ccc(C(F)(F)F)c2F)cn1
2. [2H]C([2H])([2H])Oc1cc(OC(F)(F)F)ccc1Oc1cc(C(F)(F)F)c(F)cc1C(=O)Nc1ccnc(C(N)=O)c1
3. Cc1c(C(F)(F)F)ccc(Oc2ccc(F)cc2Cl)c1C(=O)Nc1ccnc(C(N)=O)c1
4. COc1cc(OC(F)(F)F)ccc1Oc1cc(C2CC2)cc(C)c1C(=O)Nc1ccnc(C(N)=O)c1

Result:
1. 6.80
2. 6.42
3. 7.60
4. 7.57
